# System: Escherichia coli TOP10
# Experiment Description: shrunken log2 fold change of peptide-encoding DNA abundance (4.5 h post-induction vs induction); higher = less antimicrobial activity (less host growth inhibition)
# Study Conditions: time post-induction: 4.5 h; library: site-saturation at positions 5, 18, 19, 20
Measured Metric: shrunken log2 fold change

Need shrunken log2 fold change of "RRIRPRPPRLPRPRPRPRVSPRP" , thanks. 0.00758

Need shrunken log2 fold change of "RRIRLRPPRLPRPRPRPGERPRP" , thanks. 0.33

Need shrunken log2 fold change of "RRIRARPPRLPRPRPRPTQQPRP" , thanks. -0.0711

Need shrunken log2 fold change of "RRIRLRPPRLPRPRPRPMEEPRP" , thanks. 0.156

Need shrunken log2 fold change of "RRIRVRPPRLPRPRPRPCACPRP" , thanks. 0.0537

Need shrunken log2 fold change of "RRIRYRPPRLPRPRPRPVNCPRP" , thanks. 0.0039

Need shrunken log2 fold change of "RRIRKRPPRLPRPRPRPASIPRP" , thanks. 0.0215

Need shrunken log2 fold change of "RRIRPRPPRLPRPRPRPSITPRP" , thanks. -0.401

* * *

# Test system: Escherichia coli TOP10
# Experiment Description: shrunken log2 fold change of peptide-encoding DNA abundance (4.5 h post-induction vs induction); higher = less antimicrobial activity (less host growth inhibition)
# Study Conditions: time post-induction: 4.5 h; library: site-saturation at positions 5, 18, 19, 20
Entries annotated with measured shrunken log2 fold change
Give a plain numeric answer without units written out.

1. RRIRIRPPRLPRPRPRPPSTPRP : 0.0126
2. RRIRMRPPRLPRPRPRPLVIPRP : -0.13
3. RRIRYRPPRLPRPRPRPIHSPRP : -0.0447
4. RRIRPRPPRLPRPRPRPMEHPRP : -0.0171

Need shrunken log2 fold change of "RRIRPRPPRLPRPRPRPNTRPRP" , thanks. -0.112

Need shrunken log2 fold change of "RRIRLRPPRLPRPRPRPIFLPRP" , thanks. -0.333

* * *

Entries annotated with measured shrunken log2 fold change
# Tested on: Escherichia coli TOP10;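 note: peptides expressed intracellularly from a pBAD plasmid library in pooled LB shake-flask culture, induced with 0.3% L-arabinose, DNA abundance read by NGS, three biological replicates, DESeq2 with apeglm shrinkage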
# Experiment Description: shrunken log2 fold change of peptide-encoding DNA abundance (4.5 h post-induction vs induction); higher = less antimicrobial activity (less host growth inhibition)
# Study Conditions: time post-induction: 4.5 h; library: site-saturation at positions 5, 18, 19, 20

Recorded shrunken log2 fold change, per entry:
1. RRIRKRPPRLPRPRPRPLGHPRP : 0.166
2. RRIRTRPPRLPRPRPRPYDHPRP : -0.097
3. RRIRQRPPRLPRPRPRPYSMPRP : -0.031
4. RRIRLRPPRLPRPRPRPLMHPRP : 0.0668
5. RRIRFRPPRLPRPRPRPRNVPRP : -0.372

Which shrunken log2 fold change is reported with Escherichia coli TOP10 for this entry: "RRIRWRPPRLPRPRPRPKHTPRP" ? 0.578

Which shrunken log2 fold change is reported with Escherichia coli TOP10 for this entry: "RRIRSRPPRLPRPRPRPVAKPRP" ? 0.116

Which shrunken log2 fold change is reported with Escherichia coli TOP10 for this entry: "RRIRGRPPRLPRPRPRPRHPPRP" ? 0.442

Which shrunken log2 fold change is reported with Escherichia coli TOP10 for this entry: "RRIRVRPPRLPRPRPRPICYPRP" ? 0.19

Which shrunken log2 fold change is reported with Escherichia coli TOP10 for this entry: "RRIRIRPPRLPRPRPRPYPRPRP" ? -0.311

Which shrunken log2 fold change is reported with Escherichia coli TOP10 for this entry: "RRIRLRPPRLPRPRPRPTNQPRP" ? -0.327
